- Test system: DNA
- ASSAY TEXT: Binding affinity to calf thymus DNA in phosphate buffer at pH 7.4 assessed as hypochromic effect at 1.0 x 10^-5 M by UV-visible spectroscopy
- Type: nucleic-acid assay
- MEASUREMENT CONDITIONS: Bos taurus
ASSAY READOUT: Activity (%)

[[record]]
cpd_smiles = "O=c1oc2cc(OCCN3CCOCC3)ccc2c(-c2ccc(OCCN3CCOCC3)cc2)c1-c1ccccc1"
result = 13

[[record]]
cpd_smiles = "COc1ccc2c(-c3ccc(OCCN4CCCCC4)cc3)c(-c3ccccc3)c(=O)oc2c1"
result = 12

[[record]]
cpd_smiles = "O=c1oc2cc(OCCN3CCCCC3)ccc2c(-c2ccc(OCCN3CCCCC3)cc2)c1-c1ccccc1"
result = 23

[[record]]
cpd_smiles = "O=c1oc2cc(O)ccc2c(-c2ccc(O)cc2)c1-c1ccccc1"
result = 8

[[record]]
cpd_smiles = "O=c1oc2cc(OCCN3CCCCC3)ccc2c(-c2ccc(OCCN3CCCCC3)cc2)c1-c1ccc(OCCN2CCCCC2)cc1"
result = 25

